# TEST_PROTOCOL: qHTS assay for MDR1-selective chemotherapeutics: Primary screen using the drug-selected MDR subline cells KB-V1; note: nearly all actives have a fitted effect of over 60% in size
# SETUP_CONDITIONS: KB-V1 MDR cells viability, CellTiter-Glo, 72 h; series mostly up to 46.1 µM
In all, about 400,000 compounds went through this assay and about 13,000 (3.2%) were called active. About 18% were inconclusive and are not listed. Calls come from the whole dose curve; as a rule, active = well fitted cell-killing curve with a large enough effect; inconclusive = small, poorly fitted or top-dose-only effect, or effect the other way; inactive = flat fitted curve, though single readings scatter. Many of the other results were omitted from the sample, so actives are more common in it than they were.
One label from this list, please: active, inactive

Some solved entries appear below for comparison.
>>> df
                                   molecule     group
0  COc1ccc(S(=O)(=O)N2CCCCC2c2cc(C(=O)NCc3ccc(F)cc3)no2)cc1 (stereo not given)  inactive
1   CCn1c(SCC(=O)NCc2ccco2)nnc1-c1ccc(N)cc1  inactive
2  CCc1nn(CCCC(=O)NCc2ccccc2OC)c(=O)c2cc3occc3n12  inactive

Exam item: Per the records of this test, what outcome belongs to "O=S(=O)(Nc1ccc2nc(-c3cccc(Cl)c3)oc2c1)c1ccccc1" ?
Marked response: inactive

Exam item: Just curious, what result did "Cc1ccc(-c2csc3nnc(SCC(=O)NCc4ccco4)n23)cc1" get here?
Marked response: active

* * *

# TEST_PROTOCOL: qHTS assay for MDR1-selective chemotherapeutics: Primary screen using the drug-selected MDR subline cells KB-V1; note: nearly all actives have a fitted effect of over 60% in size
# SETUP_CONDITIONS: KB-V1 MDR cells viability, CellTiter-Glo, 72 h; series mostly up to 46.1 µM
About 13,000 (3.2%) of roughly 400,000 compounds were called active. About 18% were inconclusive and are not listed. Calls follow the shape of the dose curve; as a rule, active = well fitted cell-killing curve with a large enough effect; inconclusive = small, poorly fitted or top-dose-only effect, or effect the other way; inactive = flat fitted curve, though single readings scatter. Shown is part of a subset that was picked to be rich in actives.
In this exercise, the only acceptable responses are active, inactive

In [3]: df
Out[3]:
                                   compound     group
0  CCC1=NN(C(=O)Cc2ccc([N+](=O)[O-])cc2)C(O)(c2ccc(Br)cc2)C1 (stereo not drawn)    active
1  COc1ccc(S(=O)(=O)N2CCC(C(=O)N3CCc4ccccc4C3)CC2)cc1OC    active
2  COc1ccc(C2=NN(C(=O)CSc3nnnn3C)C(c3ccco3)C2)cc1 (stereo not drawn)  inactive
3  CC1(C(=O)O)CCN1C(=O)/C=C/c1ccccc1 (stereo not drawn)  inactive
4    COc1ccc(OCCCn2c(C)nc3cc(C)c(C)cc32)cc1  inactive
5        COc1ccc(CCNC(=O)Cc2ccc(C)cc2)cc1OC  inactive

Exam item: Identify the outcome logged in this assay for the compound shown: "O=C(c1ccccc1)N1CCN(c2cc(-c3ccccc3)nc3cc(-c4cccc(Cl)c4)nn23)CC1"
Marked response: inactive

Exam item: Which outcome was assigned to Cc1ccc2sc(N(Cc3cccnc3)C(=O)C3COc4ccccc4O3)nc2c1C (stereo not drawn) in this test?
Marked response: inactive

Exam item: I'd appreciate the recorded outcome for CCOC(=O)C1C(=O)NC(N2CCN(c3ccccc3)CC2)=NC1c1ccco1 (stereo not drawn) from this test.
Marked response: inactive

* * *

# TEST_PROTOCOL: qHTS assay for MDR1-selective chemotherapeutics: Primary screen using the drug-selected MDR subline cells KB-V1; note: nearly all actives have a fitted effect of over 60% in size
# SETUP_CONDITIONS: KB-V1 MDR cells viability, CellTiter-Glo, 72 h; series mostly up to 46.1 µM
The whole screen tested about 400,000 compounds, of which about 13,000 (3.2%) were called active. Not shown: some 18% with an inconclusive outcome. Calls follow the shape of the dose curve; as a rule, active = well fitted cell-killing curve with a large enough effect; inconclusive = small, poorly fitted or top-dose-only effect, or effect the other way; inactive = flat fitted curve, though single readings scatter. What follows is part of a selection rich in actives, with near analogues and random picks from the rest.
A correct response names exactly one class from active, inactive

Exam item: // return assay outcome for "Cc1ccc(OCCSc2nc(-c3cccs3)nc3cc(=O)[nH]n23)cc1Cl"
Marked response: inactive

Exam item: Check the results log: what was the call for "CCOc1ccc2nc(N3CCCN(C(=O)Nc4ccccc4C)CC3)c(C#N)cc2c1" ?
Marked response: active

Exam item: Record request — test call for "COc1ccc(S(=O)(=O)N2CCC(C(=O)NCCC(=O)NCCc3cccc(F)c3)CC2)cc1"
Marked response: inactive

Exam item: Given "CCCc1nc2ccccc2c(=O)n1/N=C/c1ccc(O)c(O)c1" , state the outcome it received in this test.
Marked response: inactive

Exam item: Which outcome was entered for the compound "CCOc1ccc(NC(=O)c2cc3c(=O)n(Cc4cccs4)ccc3nc2C)cc1" in this test?
Marked response: inactive

Exam item: What was the test verdict on "COC(=O)CSc1nc2ccccc2c(=O)n1Cc1ccccc1" ?
Marked response: inactive

Exam item: What was the test verdict on "Cc1cccc(N2CCN(S(=O)(=O)c3ccc4[nH]c5c(c4c3)CCCCC5)CC2)c1C" ?
Marked response: inactive

Exam item: Would you mind telling me which call this test gave "Cn1nnnc1SCC(=O)Nc1cccc(S(=O)(=O)N2CCCCC2)c1" ?
Marked response: active

Exam item: Dear colleague, could you share the recorded outcome for OC(Cc1ccc2ccccc2n1)c1ccc(Cl)c(Cl)c1 (stereo unspecified) when you have a moment?
Marked response: inactive

Exam item: Would you mind telling me which call this test gave "O=C(c1c(F)cccc1F)N1CCN(S(=O)(=O)c2ccc3c(c2)OCCO3)CC1" ?
Marked response: inactive

Exam item: Which outcome did this test record for the compound CCC(C(=O)Nc1cc(OC)ccc1OC)n1c(=O)c(C(F)(F)F)nc2ccccc21 (stereo unspecified) ?
Marked response: inactive

Exam item: Called result for "Cc1[nH]n(-c2cccc(Cl)c2)c(=O)c1/C=N/n1c(C)nc2ccccc2c1=O"
Marked response: active

* * *

# TEST_PROTOCOL: qHTS assay for MDR1-selective chemotherapeutics: Primary screen using the drug-selected MDR subline cells KB-V1; note: nearly all actives have a fitted effect of over 60% in size
# SETUP_CONDITIONS: KB-V1 MDR cells viability, CellTiter-Glo, 72 h; series mostly up to 46.1 µM
# Excerpt: A prime difficulty in effectively treating cancer is the development of cellular resistance to multiple structurally unrelated anticancer drugs, a phenomenon known as multidrug resistance (MDR). […] Numerous strategies to overcome P-gp-mediated MDR have been explored, including the design of drugs that evade recognition and efflux, and development of inhibitors to block efflux and restore drug accumulation. […]
Out of some 400,000 compounds screened, about 13,000 (3.2%) were called active. Not shown: some 18% with an inconclusive outcome. Calls follow the shape of the dose curve; as a rule, active = well fitted cell-killing curve with a large enough effect; inconclusive = small, poorly fitted or top-dose-only effect, or effect the other way; inactive = flat fitted curve, though single readings scatter. The sample as a whole holds a higher share of actives than the screen did.
Respond with a class label; see active, inactive

Below, 3 molecules whose answers are already recorded.
                                   molecule     group
0        O=C(CN1CCCCC1)Nc1ccccc1C(=O)NC1CC1  inactive
1  CCCCNC(=O)c1nc(C2CCN(S(=O)(=O)c3ccc(F)c(F)c3)CC2)oc1-c1cccc(C(F)(F)F)c1  inactive
2    Cc1ccc(OCC(=O)Nc2ccccc2C(=O)NC2CC2)cc1    active

Exam item: Record lookup: outcome of this test for "COc1ccc(N2CCN(S(=O)(=O)c3ccc(-c4coc(C)n4)cc3)CC2)cc1" ?
Marked response: inactive

Exam item: Please state the recorded outcome for this molecule: "Cc1ccc(NC(=O)[C@H](Cc2ccccc2)NC(=O)CC[C@H]2O[C@@H](n3ccc(=O)[nH]c3=O)[C@H](O)[C@@H]2O)cc1C"
Marked response: inactive

Exam item: Could you please tell me the result logged for "Cc1occc1C(=O)Nc1nnc(C2CCCCC2)s1" in this assay?
Marked response: active

Exam item: Any idea what this test logged for "Cc1nc(Nc2ccc(S(=O)(=O)N3CCCC3)cc2)c2nnn(Cc3ccccc3)c2n1" ?
Marked response: inactive

Exam item: So what was the verdict on CC(C)CCNC(=O)C(C)N(C(=O)Cn1nnc(-c2ccc(F)cc2)n1)C1CCCC1 (configuration not stated) in this test?
Marked response: inactive

* * *

# TEST_PROTOCOL: qHTS assay for MDR1-selective chemotherapeutics: Primary screen using the drug-selected MDR subline cells KB-V1; note: nearly all actives have a fitted effect of over 60% in size
# SETUP_CONDITIONS: KB-V1 MDR cells viability, CellTiter-Glo, 72 h; series mostly up to 46.1 µM
# Text: A prime difficulty in effectively treating cancer is the development of cellular resistance to multiple structurally unrelated anticancer drugs, a phenomenon known as multidrug resistance (MDR). […] Numerous strategies to overcome P-gp-mediated MDR have been explored, including the design of drugs that evade recognition and efflux, and development of inhibitors to block efflux and restore drug accumulation. […]
Screen size: about 400,000 compounds; about 13,000 (3.2%) were called active. About 18% were inconclusive and are not listed. The call rests on the fitted dose curve; in most records, active means well fitted cell-killing curve with a large enough effect; inconclusive means small, poorly fitted or top-dose-only effect, or effect the other way; inactive means flat fitted curve, though single readings scatter. Shown is part of a subset that was picked to be rich in actives.
Mark one answer only. Choices: active, inactive

Worked set:
In [3]: df
Out[3]:
                                   molecule     group
0  Cc1ccc(S(=O)(=O)N/N=C\c2cc3c(cc2[N+](=O)[O-])OCO3)cc1  inactive
1  O=C(Nc1ccc2c(c1)CCC2)c1cccc(S(=O)(=O)Nc2ccccc2Cl)c1    active
2  COC(=O)C[C@@H]1C=C[C@@H](NC(=O)c2cccnc2)[C@@H](CO)O1  inactive

Exam item: // return assay outcome for "CCc1nc2ccc(C(=O)NC3CCN(Cc4ccccc4)CC3)cn2c1N(C)CCN1CCOCC1"
Marked response: inactive

Exam item: Which result was noted for this molecule in the test: CC(=O)N1CCCc2cc(S(=O)(=O)N3CCCC(C(=O)NCc4ccc(Cl)cc4)C3)ccc21 (stereo unspecified)
Marked response: inactive

Exam item: Recorded test call requested for "CCOc1ccc(-c2n[nH]c(=S)n2/N=C/c2cc3c(cc2[N+](=O)[O-])OCO3)cc1"
Marked response: inactive

Exam item: Identify the outcome logged in this assay for the molecule shown: "N#CCC(=O)N/N=C/c1cn(Cc2ccc3ccccc3c2)c2ccccc12"
Marked response: inactive

Exam item: Test call, this molecule: Cc1cccc(N2CCN(c3ccc(C(=O)O)cc3NC(=O)c3ccccc3F)CC2C)c1 (stereo unspecified)
Marked response: inactive

Exam item: Hi, sorry to bother you, what did the test record for CC1=C(C(=O)N2CCOCC2)CC(CC(=O)NCC2CCCCC2)C(=O)N1Cc1ccc(F)cc1 (stereo unspecified) ?
Marked response: inactive

Exam item: Which outcome did this test record for the molecule "O=C(NCCc1ccccc1)C1CCN(S(=O)(=O)c2ccc(Br)s2)CC1" ?
Marked response: active
